- Assay system: T1, CXCL11 (human, UniProt O14625 22-94)
- T1 chain: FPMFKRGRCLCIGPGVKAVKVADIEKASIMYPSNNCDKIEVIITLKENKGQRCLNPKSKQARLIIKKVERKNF
- Procedure text: BLI
# T = Kd below 20 nM (exclusive); F = Kd at/above 20 nM

Please review the following examples before continuing.
P1078_IXORI (natural protein) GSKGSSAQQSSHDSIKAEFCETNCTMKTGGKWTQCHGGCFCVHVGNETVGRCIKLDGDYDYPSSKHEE    T
P942 (natural protein, also: glycosylated) DGGNQLSGPQSSANSNEAVFCDTNCTQGTDEAWSGCRGDCFCVYVGNSTEGRCMMLSGDFDYSTPGAED    T
P1126 (natural protein, also: glycosylated) DGGKPQILQRTDKSTDSEWDPQTCPETCIPSKNITCSDGCVCVKLGEEEEGTCFNMTGVDWLGSPSDD    F

Q. Lab note: confirm whether the reported Kd for this binder is below 20 nM, equality not counting. binder: P1100_IXORI (natural protein) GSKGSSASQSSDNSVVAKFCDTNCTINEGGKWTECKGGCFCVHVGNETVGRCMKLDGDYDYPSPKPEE
A. F

Q. Lab note: confirm whether the reported Kd for this binder is below 20 nM, equality not counting. binder: P1090_IXORI (natural protein) GSKELSGPESSENSIEAAFCDTNCTEGTDGVWSGCSAGCFCVHVGNSTVGRCMTFNGVD
A. T

Q. Lab note: confirm whether the reported Kd for this binder is below 20 nM, equality not counting. binder: P675 (natural protein, also: glycosylated) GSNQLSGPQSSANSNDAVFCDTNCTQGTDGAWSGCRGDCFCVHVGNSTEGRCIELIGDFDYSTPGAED
A. T

Q. Lab note: confirm whether the reported Kd for this binder is below 20 nM, equality not counting. binder: P1142 (natural protein, glycosylated (periodic acid–Schiff staining)) DGGKPQILQRTDHSTDSDWDPQMCPETCNPSKNISCSSECLCVTLGGGDETGTCFNMSGVDWLGHAQASDGHNDGGGASAWSHPQFEKLEHHHHHHHH
A. F
